Every entry's value here was drawn from the supplement of paper PMC8728848.

I'd be grateful if you could share measured glycan array binding signal (z-score) for these entries.
# tgt: GlcNAc(a1-4)Gal(b1-4)GalNAc
# assay comment: glycan array binding signal (z-score within array); higher = stronger binding
# settings: glycan notation: IUPAC condensed, linker removed
The full list was thinned out, with the strongest signals kept by preference.
Keep it simple and answer with nothing but the number.

Query: Need glycan array binding signal (z-score), item AAL (Agrocybe aegerita), Q6WY08 (protein) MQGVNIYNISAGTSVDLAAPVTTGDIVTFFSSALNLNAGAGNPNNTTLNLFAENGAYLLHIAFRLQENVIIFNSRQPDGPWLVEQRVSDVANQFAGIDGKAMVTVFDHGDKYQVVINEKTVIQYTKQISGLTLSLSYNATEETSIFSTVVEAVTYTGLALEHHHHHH
Response: -0.152

Query: Given Strep tagII-anxA1 (Homo sapiens), P04083 (protein) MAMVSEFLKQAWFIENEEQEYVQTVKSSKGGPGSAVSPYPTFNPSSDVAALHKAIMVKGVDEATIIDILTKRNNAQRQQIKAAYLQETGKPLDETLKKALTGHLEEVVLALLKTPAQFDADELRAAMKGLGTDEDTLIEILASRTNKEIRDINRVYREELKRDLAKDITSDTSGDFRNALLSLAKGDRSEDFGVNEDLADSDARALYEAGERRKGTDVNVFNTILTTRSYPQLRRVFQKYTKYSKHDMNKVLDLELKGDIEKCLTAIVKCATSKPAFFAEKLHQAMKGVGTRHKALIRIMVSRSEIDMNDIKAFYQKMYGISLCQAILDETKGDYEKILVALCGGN , state its recorded glycan array binding signal (z-score).
Response: 2.68

Query: So what does the record say about glycan array binding signal (z-score) for Sebin1 (Coprinopsis cinerea), A8PEE3 (protein) MTSPFYAHIHNVQDDNTWRFTLIFANRATADEWWRAISEAPANTSIAKSITRVTPQYYTHDVNIWNIWNFFADGNIKSISERFRGRLFIVLENDRGGRGITVIPPVPIVDHVSGNWFYIRSKTAPHLFWYYDERRSSIYASKEKRTRFKISIRNPSSQTPKNAIMINTDDVTIHIKENLYVGVDNNLGHIIPTRAYRTFKFGELESGAIAGFDVVENIEERCSSTFDGASLSISGPDSSSPGEPWELV ?
Response: -0.32

Query: Which glycan array binding signal (z-score) reading was recorded for the binder SJA (Sophora japonica) (protein) FLGLFNSGGYSSSYQIVAVEFDTYINEWDPKTRHIGIDINSINSTKTVTWGWENGEVAIVLISYKAATETLTVSLTYPSSQTSYILSAAVDLKSILPEWVRIGF ?
Response: -0.15
